tested_system: VIPR2 (Homo sapiens)
method: Inhibition of VIP-induced cAMP elevation (% Activity cAMP)
Type: cell-based
Design: expressed in transfected cells; host or cells: HEK293 cells transfected with VIPR2 in pCDNA3.1 (as described)
condition_summary: 1 μM, Batch 1
parameter_measured: inhibition at 1 µM (%)

Record excerpt, results attached:
O=C(NC[C@@H](O)C[C@@H](Cc1ccccc1)C(=O)N[C@H]1c2ccccc2C[C@H]1O)c1ccccn1 17.7
O=C(NC[C@@H](O)C[C@@H](Cc1ccccc1)C(=O)N[C@H]1c2ccccc2C[C@H]1O)c1c(Cl)cc(Cl)cc1Cl 14.8

(1) O=C(N[C@H]1c2ccccc2C[C@H]1O)[C@H](Cc1ccccc1)C[C@H](O)CNS(=O)(=O)c1ccccc1C(F)(F)F
(2) O=C(CCCCBr)NC[C@@H](O)C[C@@H](Cc1ccccc1)C(=O)N[C@H]1c2ccccc2C[C@H]1O
Input line: Identify the item whose inhibition at 1 µM is the smaller number: 1 or 2 Identify your pick by its label.
Output line: 2

###

tested_system: VIPR2 (Homo sapiens, UniProt P41587)
Sequence (P41587 24-438): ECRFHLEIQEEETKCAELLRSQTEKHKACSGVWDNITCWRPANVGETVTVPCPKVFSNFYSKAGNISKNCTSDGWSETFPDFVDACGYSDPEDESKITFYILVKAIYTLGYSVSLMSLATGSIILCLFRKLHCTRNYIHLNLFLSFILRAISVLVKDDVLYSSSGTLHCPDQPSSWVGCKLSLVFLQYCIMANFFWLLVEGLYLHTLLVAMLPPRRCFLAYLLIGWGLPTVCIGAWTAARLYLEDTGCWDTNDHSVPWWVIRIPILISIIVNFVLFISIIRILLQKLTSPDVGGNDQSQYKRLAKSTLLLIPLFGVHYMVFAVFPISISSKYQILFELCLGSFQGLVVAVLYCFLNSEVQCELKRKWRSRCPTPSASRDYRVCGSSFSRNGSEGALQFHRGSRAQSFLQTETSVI
method: % Activity: inhibition of VIP-induced cAMP elevation and β-arrestin recruitment (Table 2)
Format: cell-based
Design: expressed in transfected cells; host or cells: HEK293 cells transfected with VIPR2 in pCDNA3.1 (as described)
parameter_measured: % Activity (%)

(1) CNC(=O)[C@H](Cc1ccccc1)C[C@H](O)CNS(=O)(=O)c1ccc([N+](=O)[O-])cc1
(2) CC(C)CNc1ccc(S(=O)(=O)NC[C@@H](O)C[C@@H](Cc2ccccc2)C(=O)N[C@H]2c3ccccc3C[C@H]2O)cc1
(3) O=C([C@H](Cc1ccccc1)C[C@H](O)CNS(=O)(=O)c1ccc([N+](=O)[O-])cc1)N1CCOCC1
Input line: Could you please sort these 3 entries by % Activity from high to low? In plain terms: list the labels in the order you were asked to.
Output line: 2, 1, 3
(2: 19.65%, 1: 6.25%, 3: 0.6%)

###

tested_system: VIPR2 (Homo sapiens, UniProt P41587)
method: Inhibition of VIP-induced cAMP elevation (% Activity cAMP)
Format: cell-based
Design: expressed in transfected cells; host or cells: HEK293 cells transfected with VIPR2 in pCDNA3.1 (as described)
condition_summary: 5 μM, Batch 3
parameter_measured: inhibition at 5 µM (%)

Worked examples, 6 compounds total:
CC(=O)Nc1ccc(S(=O)(=O)NC[C@@H](O)C[C@@H](Cc2ccccc2)C(=O)N[C@H]2c3ccccc3C[C@H]2O)cc1 19.1
O=C(Nc1ccc(S(=O)(=O)NC[C@@H](O)C[C@@H](Cc2ccccc2)C(=O)N[C@H]2c3ccccc3C[C@H]2O)cc1)C1CC1 34.3
CCC(=O)Nc1ccc(S(=O)(=O)NC[C@@H](O)C[C@@H](Cc2ccccc2)C(=O)N[C@H]2c3ccccc3C[C@H]2O)cc1 26.9
Nc1ccc(S(=O)(=O)NC[C@@H](O)C[C@@H](Cc2ccccc2)C(=O)N[C@H]2c3ccccc3C[C@H]2O)cc1 33.3
O=C(N[C@H]1c2ccccc2C[C@H]1O)[C@H](Cc1ccccc1)C[C@H](O)CNS(=O)(=O)c1ccc(C(=O)N2CCOCC2)cc1 25.5
CCCCNC(=O)c1ccc(S(=O)(=O)NC[C@@H](O)C[C@@H](Cc2ccccc2)C(=O)N[C@H]2c3ccccc3C[C@H]2O)cc1 20.6

(I) CC(C)Nc1ccc(S(=O)(=O)NC[C@@H](O)C[C@@H](Cc2ccccc2)C(=O)N[C@H]2c3ccccc3C[C@H]2O)cc1
(II) CCN(CC)C(=O)c1ccc(S(=O)(=O)NC[C@@H](O)C[C@@H](Cc2ccccc2)C(=O)N[C@H]2c3ccccc3C[C@H]2O)cc1
(III) O=C(N[C@H]1c2ccccc2C[C@H]1O)[C@H](Cc1ccccc1)C[C@H](O)CNS(=O)(=O)c1ccc(C(=O)N2CCCCC2)cc1
(IV) CN(C)c1ccc(S(=O)(=O)NC[C@@H](O)C[C@@H](Cc2ccccc2)C(=O)N[C@H]2c3ccccc3C[C@H]2O)cc1
Input line: Order each entry by recorded inhibition at 5 µM, climbing from the minimum. The reply should contain the labels ordered as requested.
Output line: IV, III, I, II

Taken from patent US20150239831A1.
